The measurements presented in this section are drawn from patent US12319655B2.

- tested_on: A-Raf kinase (SEQ. ID No: 1) (Homo sapiens (Human), UniProt P10398, Y301D/Y302D)
- Sequence (P10398 other isoform, or with tags, fused parts or gaps Y301D (already in the parent)/Y302D (already in the parent)): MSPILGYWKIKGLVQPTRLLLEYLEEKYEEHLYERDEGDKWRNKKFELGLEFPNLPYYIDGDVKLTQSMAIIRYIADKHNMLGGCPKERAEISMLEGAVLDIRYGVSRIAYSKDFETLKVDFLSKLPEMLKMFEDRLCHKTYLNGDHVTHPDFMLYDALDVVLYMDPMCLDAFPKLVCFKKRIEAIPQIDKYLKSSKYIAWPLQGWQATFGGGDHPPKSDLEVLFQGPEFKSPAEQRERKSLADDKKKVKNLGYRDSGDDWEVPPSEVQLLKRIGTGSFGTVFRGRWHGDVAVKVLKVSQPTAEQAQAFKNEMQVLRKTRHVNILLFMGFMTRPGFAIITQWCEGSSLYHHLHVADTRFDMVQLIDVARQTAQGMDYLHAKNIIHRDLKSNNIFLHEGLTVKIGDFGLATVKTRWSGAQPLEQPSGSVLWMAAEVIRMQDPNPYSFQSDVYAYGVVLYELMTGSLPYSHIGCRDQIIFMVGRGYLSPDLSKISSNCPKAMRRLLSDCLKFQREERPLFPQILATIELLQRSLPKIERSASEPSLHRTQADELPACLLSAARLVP
- experiment: Biochemical Assay for A-Raf (1)
- conditions: Table J, assay version (1); read-out: ARAF (1) IC50
pIC50: −log10 of the molar value.

{"compound": "Cc1ncc(NC(=O)C2CCN(C)C2)cc1-c1nccc(-c2ccnc(NC(=O)C3CC3)c2)n1 (centres unmarked)", "pIC50": "5.00 to 6.00"}
{"compound": "CC(=O)Nc1cc(-c2cc(-c3cc(NC(=O)c4cccc(C)c4)ccc3C)ccn2)ccn1", "pIC50": "6.00 to 6.30"}
{"compound": "Cc1ccc(NC(=O)c2ccnc(C(F)(F)F)c2)cc1-c1ccnc(-c2ccnc(NC(=O)CC#N)c2)c1", "pIC50": "5.00 to 6.00"}
{"compound": "COC(=O)Nc1cc(-c2cccc(-c3cc(NC(=O)c4ccnc(C(C)(C)C#N)c4)cnc3C)c2)ccn1", "pIC50": "5.00 to 6.00"}
{"compound": "CNC(=O)c1cc(-c2cccc(-c3cc(NC(=O)c4ccnc(C(C)(C)C#N)c4)cnc3C)c2)cnn1", "pIC50": "5.00 to 6.00"}
